Molecular target: nuclear Type II estrogen binding sites
Test: Inhibition assay: [3H]estradiol binding to nuclear Type II sites (uterine nuclei from estrogen-implanted ovariectomized rats)
Parameters: species or system rat
Conditions: Table I; read-out: TYPE II INHIBITION: concentration (nM) times 10^-2 to inhibit nuclear Type II binding sites by 50%
property-measured: IC50 (nM)
Reply numerically in nM, unit not repeated.

Form: Entry = COC(=O)C(O)Cc1ccc(O)cc1 (stereo not drawn) | System = nuclear Type II estrogen binding sites | IC50 = ____
80

Follow-up entry: COC(=O)C=Cc1ccc(O)c(OC)c1
600

Moving on to COC(=O)C=Cc1ccc(O)c(O)c1
100

Then CC(=O)CCc1ccc(O)cc1 [1-(4-hydroxyphenyl)-3-butanone] ?
200

What would you report for COC(=O)COc1ccc(O)cc1 [methyl (4-hydroxyphenoxy) acetate, methyl (4-hydroxyphenoxy)acetate] ?
80

Try O=C(O)C(O)Cc1ccc(O)cc1 (stereo not drawn) [reference compound] next.
8000

###

System: estradiol stimulation of uterine growth (rat uterus)
Test: Uterotropic assay: block of estradiol stimulation of uterine growth in immature female rats
Type: in vivo
Conditions: 10 μg compound; block of estradiol stimulation in the rat uterotropic assay
Could you mark each record 1 (yes) if its GROWTH INHIBITION (%) falls strictly under 90%, and 0 (no) if it equals or exceeds it?

- compound: "CC(=O)CCc1ccc(O)cc1 [1-(4-hydroxyphenyl)-3-butanone]"
  study-system: "estradiol stimulation of uterine growth (rat uterus)"
  class-assignment: "0 (no)"
- compound: "COC(=O)COc1ccc(O)cc1 [methyl (4-hydroxyphenoxy) acetate, methyl (4-hydroxyphenoxy)acetate]"
  study-system: "estradiol stimulation of uterine growth (rat uterus)"
  class-assignment: "1 (yes)"
- compound: "COC(=O)C=Cc1ccc(O)c(OC)c1"
  study-system: "estradiol stimulation of uterine growth (rat uterus)"
  class-assignment: "1 (yes)"

Hello, I'm reviewing records and need to know if GROWTH INHIBITION (%) of COC(=O)C=Cc1ccc(O)c(O)c1 is below 90%. Could you check?
1 (yes)

Request: O=C(O)C(O)Cc1ccc(O)cc1 (stereo not drawn) [reference compound]
1 (yes)
